- study-system: hTRPA1 (Homo sapiens, UniProt O75762)
- Sequence (O75762 whole entry): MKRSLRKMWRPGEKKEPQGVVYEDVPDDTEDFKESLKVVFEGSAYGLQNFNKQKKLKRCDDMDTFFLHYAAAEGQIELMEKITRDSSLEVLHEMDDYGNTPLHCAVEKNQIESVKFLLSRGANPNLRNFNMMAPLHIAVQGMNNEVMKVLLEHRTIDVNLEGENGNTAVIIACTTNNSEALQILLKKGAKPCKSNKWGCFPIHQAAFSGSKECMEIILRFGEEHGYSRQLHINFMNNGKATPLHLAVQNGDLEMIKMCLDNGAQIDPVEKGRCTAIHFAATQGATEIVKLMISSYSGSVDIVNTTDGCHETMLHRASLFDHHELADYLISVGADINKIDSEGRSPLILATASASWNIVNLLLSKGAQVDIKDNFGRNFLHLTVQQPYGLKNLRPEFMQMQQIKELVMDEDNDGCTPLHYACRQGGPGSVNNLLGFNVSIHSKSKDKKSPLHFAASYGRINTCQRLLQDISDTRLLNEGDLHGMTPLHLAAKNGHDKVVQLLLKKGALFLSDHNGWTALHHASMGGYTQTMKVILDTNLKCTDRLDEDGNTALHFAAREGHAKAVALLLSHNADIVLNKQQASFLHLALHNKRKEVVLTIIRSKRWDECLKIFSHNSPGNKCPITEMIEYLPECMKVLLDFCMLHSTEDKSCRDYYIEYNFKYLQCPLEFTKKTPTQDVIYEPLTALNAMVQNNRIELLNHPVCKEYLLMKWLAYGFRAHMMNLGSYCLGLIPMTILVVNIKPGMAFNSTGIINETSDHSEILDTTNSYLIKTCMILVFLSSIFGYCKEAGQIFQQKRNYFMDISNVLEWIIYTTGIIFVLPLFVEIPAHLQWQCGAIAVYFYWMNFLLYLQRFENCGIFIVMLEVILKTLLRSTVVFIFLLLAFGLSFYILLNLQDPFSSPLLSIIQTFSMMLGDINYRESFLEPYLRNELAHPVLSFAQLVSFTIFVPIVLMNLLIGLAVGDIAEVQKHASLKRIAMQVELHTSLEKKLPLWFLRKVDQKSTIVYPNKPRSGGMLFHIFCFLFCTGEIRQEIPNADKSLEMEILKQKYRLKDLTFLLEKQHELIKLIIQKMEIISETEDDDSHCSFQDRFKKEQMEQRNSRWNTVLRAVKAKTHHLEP
- protocol-description: Dose response calcium flux (FLIPR) assay, ChanTest hTRPA1-CHO stably transfected cell line, cinnamaldehyde agonist
- test-settings: CHO-K1 Tet-On hTRPA1 cells, 100 uM cinnamaldehyde agonist, 30 min preincubation
pIC50: −log10 of the molar value. Where a name gives a salt, the structure may show the parent alone.
Rule: Condition met for pIC50 not less than 7, Condition not met for anything less.

Observe how each entry below is paired with its result.
[
  {
    "molecule": "O=C(Nc1ccc(Cl)c(F)c1)O[C@@H](CN1CCO[C@H](c2cc(Cl)cc(Cl)c2)C1)C(F)(F)F [Example 46, hydrochloride]",
    "class-name": "Condition met"
  },
  {
    "molecule": "CC(=O)N1CCN(C[C@H](OC(=O)Nc2ccc(Cl)cc2)C(F)(F)F)CC1c1ccccc1 (some centres unmarked) [Example 28, hydrochloride]",
    "class-name": "Condition not met"
  }
]

Request: Exam item: decide whether the reported pIC50 for O=C(Nc1ccc(Cl)cc1)O[C@@H](CN1CCO[C@H](c2cc(Cl)cc(Cl)c2)C1)C(F)(F)F [Example 45, hydrochloride] is at least 7.
Response: Condition met

Request: Exam item: decide whether the reported pIC50 for O=C(Nc1ccc(Cl)cc1)O[C@@H](CN1CCS(=O)(=O)CC1)C(F)(F)F [Example 48, hydrochloride] is at least 7.
Response: Condition not met

Request: Exam item: decide whether the reported pIC50 for O=C(Nc1ccc(Cl)c(F)c1)O[C@@H](CN1CCO[C@H](c2cccc(Cl)c2)C1)C(F)(F)F [Example 6, hydrochloride] is at least 7.
Response: Condition met

---

- study-system: hTRPA1 (Homo sapiens, UniProt O75762)
- protocol-description: Dose response calcium flux (FLIPR) assay, ChanTest hTRPA1-CHO stably transfected cell line, cinnamaldehyde agonist
- test-settings: CHO-K1 Tet-On hTRPA1 cells, 100 uM cinnamaldehyde agonist, 30 min preincubation
Counter-ions that a name gives are not always drawn.
Listing of recorded IC50 by entry.
The response must be a number in nM with no trailing unit.

As a guide, the following entries are already answered.
[
  {
    "compound": "O=C(Nc1ccc(Cl)cc1)O[C@@H](CN1CCO[C@H](c2ccc(C(F)(F)F)cc2)C1)C(F)(F)F [Example 29, hydrochloride]",
    "unit-of-measure": "nM",
    "quantitative-readout": 7.64
  },
  {
    "compound": "O=C(Nc1ccc(Cl)c(F)c1)O[C@@H](CN1CCO[C@@H](c2ccc(F)c(F)c2)C1)C(F)(F)F (single isomer, unassigned) [Example 35, hydrochloride]",
    "unit-of-measure": "nM",
    "quantitative-readout": 196
  }
]

Request: Under hTRPA1 (Homo sapiens, UniProt O75762): IC50 value of O=C(Nc1ccc(Cl)cc1)O[C@@H](CN1CCOC(c2cccc(F)c2)C1)C(F)(F)F (stereo partly drawn) [Example 47, hydrochloride] ?
Response: 130

---

- study-system: hTRPA1 (Homo sapiens, UniProt O75762)
- protocol-description: Dose response calcium flux (FLIPR) assay, ChanTest hTRPA1-CHO stably transfected cell line, cinnamaldehyde agonist
- test-settings: CHO-K1 Tet-On hTRPA1 cells, 100 uM cinnamaldehyde agonist, 30 min preincubation
Structures can show the parent of a compound that is named as a salt.
Listing of recorded IC50 by entry.
The response must be a number in nM with no trailing unit.

[
  {
    "compound": "O=C(Nc1ccc(Cl)c(F)c1)O[C@@H](CN1CCO[C@H](c2ccc(C(F)(F)F)cc2)C1)C(F)(F)F [Example 31, hydrochloride]",
    "IC50 [nM]": 34.6
  },
  {
    "compound": "O=C(Nc1ccc(Cl)c(F)c1)O[C@@H](CN1CCO[C@H](c2ccc(F)cc2)C1)C(F)(F)F [Example 36, hydrochloride]",
    "IC50 [nM]": 92.2
  }
]

Let us examine a further case.
Request: GET /values?readout=IC50&item= COc1cccc([C@H]2CN(C[C@H](OC(=O)Nc3ccc(Cl)cc3)C(F)(F)F)CCO2)c1 (single isomer, unassigned)
Response: 803
